# PROTOCOL_NOTES: Unbound fraction in human plasma
# Type: ADME, cell-free
READOUT_KIND: fraction unbound
I only need the number, thanks.

stdin: Look at this compound and give its reported fraction unbound. Cc1cc(O[C@H]2CO[C@H](C)C2)cc(C(=O)Nc2nc(C)cs2)n1
stdout: 0.05

---

Recorded Fu values for a group of molecules are listed next.
# PROTOCOL_NOTES: Unbound fraction in human plasma
# Format: ADME, cell-free

The following molecules have reported results that may help.
SMILES_NOTATION | Fu
Cc1cc(O[C@@H]2CCOC2)cc(C(=O)Nc2nc(C)cs2)n1 | 0.08
Cc1cc(OC2COC2)cc(C(=O)Nc2ccc(F)cn2)n1 | 0.16
Cc1cc(O[C@@H]2CCOC2)cc(C(=O)Nc2ccc(F)cn2)n1 | 0.07

stdin: Requested field: Fu. Item: CO[C@H](C)COc1cc(C)nc(C(=O)Nc2nc(C)cs2)c1
stdout: 0.07

---

Efficacy values for the molecules below.
# TEST_TARGET: UniProtKB P41594
# Sequence (P41594 21-1212 limits assumed): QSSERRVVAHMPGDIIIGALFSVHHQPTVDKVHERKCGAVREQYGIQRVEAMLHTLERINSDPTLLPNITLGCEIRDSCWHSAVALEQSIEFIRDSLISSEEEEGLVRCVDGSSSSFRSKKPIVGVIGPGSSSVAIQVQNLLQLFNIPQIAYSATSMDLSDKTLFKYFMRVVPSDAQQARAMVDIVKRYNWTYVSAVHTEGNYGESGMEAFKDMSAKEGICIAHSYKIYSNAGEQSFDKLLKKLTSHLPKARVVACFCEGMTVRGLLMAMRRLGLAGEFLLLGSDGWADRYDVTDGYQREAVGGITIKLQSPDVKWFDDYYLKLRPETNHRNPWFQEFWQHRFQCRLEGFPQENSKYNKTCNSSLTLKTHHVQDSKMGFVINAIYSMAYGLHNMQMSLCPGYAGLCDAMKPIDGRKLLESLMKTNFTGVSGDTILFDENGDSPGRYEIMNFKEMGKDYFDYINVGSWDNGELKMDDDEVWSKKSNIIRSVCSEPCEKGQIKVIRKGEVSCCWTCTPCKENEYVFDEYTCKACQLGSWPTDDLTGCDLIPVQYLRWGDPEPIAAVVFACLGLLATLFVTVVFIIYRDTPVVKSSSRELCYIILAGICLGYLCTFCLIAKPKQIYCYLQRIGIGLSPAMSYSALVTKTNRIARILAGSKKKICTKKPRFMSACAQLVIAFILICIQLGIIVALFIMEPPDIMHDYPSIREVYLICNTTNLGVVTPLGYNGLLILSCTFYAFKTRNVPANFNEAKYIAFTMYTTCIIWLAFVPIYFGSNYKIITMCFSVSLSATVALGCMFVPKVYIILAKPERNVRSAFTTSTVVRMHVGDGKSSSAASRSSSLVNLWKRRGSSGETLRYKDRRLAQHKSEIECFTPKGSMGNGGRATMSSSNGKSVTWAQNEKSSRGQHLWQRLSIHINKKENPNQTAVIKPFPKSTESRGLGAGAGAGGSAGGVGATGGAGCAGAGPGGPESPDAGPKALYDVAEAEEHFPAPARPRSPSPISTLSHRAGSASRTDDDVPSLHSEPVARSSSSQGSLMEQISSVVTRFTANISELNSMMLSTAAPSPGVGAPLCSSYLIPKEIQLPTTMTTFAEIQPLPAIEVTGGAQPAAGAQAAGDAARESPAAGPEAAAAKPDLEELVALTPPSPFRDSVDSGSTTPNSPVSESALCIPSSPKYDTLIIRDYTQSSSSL
# PROTOCOL_NOTES: Negative allosteric modulation of human mGlu5 receptor assessed as inhibition of glutamate induced-calcium mobilization relative to glutamate
# Type: functional
Report the value in % with no unit label.

Consider the worked cases shown below.
SMILES_NOTATION | Efficacy, %
Cc1cc(O[C@H]2CO[C@H](C)C2)cc(C(=O)Nc2nc(C3CC3)cs2)n1 | 1.3
Cc1cc(O[C@@H]2CCOC2)cc(C(=O)Nc2ccccn2)n1 | 1.7

stdin: Would you mind telling me what Efficacy value was observed for Cc1cc(OC2CCCC2)cc(C(=O)Nc2ccccn2)n1 ?
stdout: 2.1

stdin: Bench note: what Efficacy did Cc1cc(O[C@H]2CO[C@@H](C)C2)cc(C(=O)Nc2ccc(F)cn2)n1 show?
stdout: 1.9

stdin: Please report the recorded Efficacy for Cc1cc(O[C@@H]2CO[C@H](C)C2)cc(C(=O)Nc2ccc(F)cn2)n1 .
stdout: 1.4

stdin: Recorded Efficacy of Cc1cc(O[C@H]2CO[C@H](C)C2)cc(C(=O)Nc2nc(C(F)F)cs2)n1 , please.
stdout: 1.6

---

Each entry below carries its reported clearance.
# PROTOCOL_NOTES: Plasma clearance in rat at 0.2 mg/kg, iv
# Format: ADME, organism-based
Report the value in mL/min/kg with no unit label.

SMILES_NOTATION | UNIT_TEXT | clearance
Cc1cc(O[C@@H]2CCOC2)cc(C(=O)Nc2ccc(F)cn2)n1 | mL/min/kg | 136
Cc1cc(OC2COC2)cc(C(=O)Nc2ccc(F)cn2)n1 | mL/min/kg | 179

Turning to the following compound.
stdin: # lookup: clearance of Cc1cc(O[C@@H]2CCOC2)cc(C(=O)Nc2nc(C)cs2)n1
stdout: 34

---

fraction unbound overview
# PROTOCOL_NOTES: Unbound fraction in rat plasma
# Type: ADME, cell-free

SMILES_NOTATION | fraction unbound
Cc1cc(O[C@H]2CO[C@H](C)C2)cc(C(=O)Nc2nc(C)cs2)n1 | 0.1

stdin: Any idea what fraction unbound was measured for Cc1cc(O[C@@H]2CCOC2)cc(C(=O)Nc2nc(C)cs2)n1 ?
stdout: 0.11

---

# PROTOCOL_NOTES: Volume of distribution at steady state in rat at 0.2 mg/kg, iv
# Type: ADME, organism-based
# RUN_CONDITIONS: in vivo, read-out: Vdss
READOUT_KIND: Vd (L/kg)
Kindly provide the numeric value in L/kg only, without the unit symbol.

SMILES_NOTATION | UNIT_TEXT | Vd
Cc1cc(OC2COC2)cc(C(=O)Nc2ccc(F)cn2)n1 | L/kg | 4.5

stdin: Fill in: Vd of Cc1cc(O[C@@H]2CCOC2)cc(C(=O)Nc2ccc(F)cn2)n1 is ___
stdout: 5.5

stdin: Given the entry Cc1cc(O[C@@H]2CCOC2)cc(C(=O)Nc2nc(C)cs2)n1 , report its measured Vd.
stdout: 2.7

Provenance of the data: ChEMBL document CHEMBL4308865
